For each record, write down the corresponding AC50.
target: Caspase-6 (Homo sapiens); assay: inhibition of CASP6 peptide cleavage – biochemical, VEID-R110 fluorescence, cherry-pick, dose response (AID 720632)
Sequence (P55212 24-179 limits assumed): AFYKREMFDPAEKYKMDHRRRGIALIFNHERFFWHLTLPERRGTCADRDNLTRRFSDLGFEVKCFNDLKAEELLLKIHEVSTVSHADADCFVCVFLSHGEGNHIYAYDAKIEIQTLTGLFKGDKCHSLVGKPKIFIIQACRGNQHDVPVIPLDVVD
Sequence (P55212 194-293 limits assumed): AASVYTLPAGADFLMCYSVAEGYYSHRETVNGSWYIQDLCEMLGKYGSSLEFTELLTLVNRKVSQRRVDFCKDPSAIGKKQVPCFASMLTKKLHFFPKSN
Activity calls are given as the source filed them.

// returns reported AC50 for input CC(N)C(=O)NC(C(=O)NC(C)C(=O)Nc1cccc2ccccc12)C(C)C (centres undefined) 10.7 µM (active)

// returns reported AC50 for input `O=C(NN1C(=O)CSC1=S)C(=O)NN1C(=O)CSC1=S` 0.276 µM (active)

I'd like to know its AC50. The compound in question is `O=C(O)[C@@H]1[C@@H](CO)[C@@H]2Cn3c(ccc(/C=C/c4ccccc4)c3=O)[C@@H]2N1Cc1ccc2c(c1)OCO2` 41.3 µM (active)

Reported AC50 for COc1cc(SC)ccc1C(=O)OC(C)C(=O)NC1CCCC1 (centres undefined) : what is it? 24.6 µM (active)

----------
Please respond with reported IC50 for every item in the list.
molecular target: Estrogen receptor beta (Homo sapiens, UniProt Q92731); assay: blockers of SRC-3 recruitment to ERβ – biochemical, ELISA, streptavidin-HRP readout, orthogonal assay, confirmation (AID 1060)
Sequence (Q92731 whole entry): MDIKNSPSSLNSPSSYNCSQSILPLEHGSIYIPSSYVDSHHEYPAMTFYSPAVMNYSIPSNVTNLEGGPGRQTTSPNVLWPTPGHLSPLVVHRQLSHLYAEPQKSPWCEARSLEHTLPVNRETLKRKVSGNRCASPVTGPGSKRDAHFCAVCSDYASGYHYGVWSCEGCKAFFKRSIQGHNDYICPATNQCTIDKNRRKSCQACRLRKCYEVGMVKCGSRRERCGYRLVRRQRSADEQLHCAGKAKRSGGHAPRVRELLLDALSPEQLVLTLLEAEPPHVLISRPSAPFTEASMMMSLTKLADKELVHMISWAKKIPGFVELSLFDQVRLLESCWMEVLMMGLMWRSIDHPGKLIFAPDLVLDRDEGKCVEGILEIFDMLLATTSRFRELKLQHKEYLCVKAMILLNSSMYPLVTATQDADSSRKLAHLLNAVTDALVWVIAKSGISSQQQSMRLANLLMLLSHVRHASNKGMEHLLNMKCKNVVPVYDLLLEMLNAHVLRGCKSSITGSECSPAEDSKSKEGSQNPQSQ

Fill in: IC50 of COc1cc(C(Nc2ccccn2)c2ccc3ccc(C)nc3c2O)cc(OC)c1O (centres undefined) is ___ > 109 µM (not active)

So what's the measured IC50 for this one? `Cc1nn(-c2ccccc2)c(Cl)c1/C=N/Nc1ccc(S(=O)(=O)Nc2ccccc2C(=O)O)cc1[N+](=O)[O-]` > 50 µM (not active)

Query (molecule): `Nc1ncnc2oc(-c3ccco3)c(-c3ccco3)c12` ; field requested: IC50 3.4 µM (not active)

Reported IC50, molecule `COc1ccc(OC)c(/C=N/c2oc(-c3ccco3)c(-c3ccco3)c2C#N)c1` : ____ 9.23 µM (not active)

----------
molecular target: Protein skinhead-1 (Caenorhabditis elegans); type: functional
Sequence (P34707 whole entry): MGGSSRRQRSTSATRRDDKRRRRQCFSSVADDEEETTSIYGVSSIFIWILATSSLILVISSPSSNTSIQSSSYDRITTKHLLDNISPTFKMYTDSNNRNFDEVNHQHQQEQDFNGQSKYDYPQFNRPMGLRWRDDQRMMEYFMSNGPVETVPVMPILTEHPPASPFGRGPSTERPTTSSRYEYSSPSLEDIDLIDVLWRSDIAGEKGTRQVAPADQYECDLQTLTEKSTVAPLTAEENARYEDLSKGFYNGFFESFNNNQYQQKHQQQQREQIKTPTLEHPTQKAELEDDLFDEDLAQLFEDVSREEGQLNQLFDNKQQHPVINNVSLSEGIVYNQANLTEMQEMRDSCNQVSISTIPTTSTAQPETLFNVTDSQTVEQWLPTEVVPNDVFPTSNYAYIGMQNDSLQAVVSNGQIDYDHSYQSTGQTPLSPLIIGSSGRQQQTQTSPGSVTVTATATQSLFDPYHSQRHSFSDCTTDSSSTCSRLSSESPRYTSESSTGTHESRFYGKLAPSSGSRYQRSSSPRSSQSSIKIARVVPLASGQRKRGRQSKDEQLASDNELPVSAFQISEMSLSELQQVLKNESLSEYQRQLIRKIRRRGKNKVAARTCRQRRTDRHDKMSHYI
Calls of active or inactive are those of the source.
Your response should consist of one outcome taken from Y (active), N (inactive)

Record lookup: outcome of this test for `CCCCCn1cnc2sc(-c3ccccc3)cc2c1=O` ? N

What classification did `COC(=O)c1ccc2nc(-c3ccc(C)cc3)c(Cc3cccc(F)c3)n2c1` end up with in this test? N

I'd appreciate the recorded outcome for `CC(=O)c1ccc(-n2nncc2-c2ccc([N+](=O)[O-])cc2)cc1` from this test. N

Kindly provide the recorded test outcome for the following compound: `C#CCN1C(=O)S/C(=C/C=C/c2ccc(N(C)C)cc2)C1=O` N

Please indicate how the test categorized `O=[N+]([O-])c1ccc(COc2ccc(CN3CCCCC3)cc2)cc1` . Y

Hi, do you know how `CC(C)Oc1cccc(C(=O)Nc2ccc(CN3CCOCC3)cc2)c1` came out in this test? Y

For `N#Cc1ccc(CN2CCN(C(=O)c3cc(C4CC4)nn3-c3ccccc3)CC2)cc1` , which call appears in the assay record? Y

Lab log entry: `CC(=O)Nc1ccc2c(c1Br)Cc1ccccc1-2` — outcome as called in the assay? N

What did the test return for `O=C(/C=C/c1ccco1)Nc1nc(-c2ccccc2)cs1` ? N

What classification did `CCCCN1C[C@H](c2ccc(Br)cc2)[C@@H](CC(=O)Nc2ccc(Br)cc2)C1=O` end up with in this test? N

So what was the verdict on O=C(c1cccs1)N1CCc2c([nH]c3ccccc23)C1c1ccc(Cl)cc1 (configuration not stated) in this test? N

Assay outcome for `Cc1c(C(=O)/C=C/c2cccs2)oc2ccc(F)cc12` : what was it? N
